- assayed_target: hMRGX2 (CHO-K1 cells overexpressing MRGX2) (Homo sapiens (Human))
- Sequence (Q96LB1 whole entry): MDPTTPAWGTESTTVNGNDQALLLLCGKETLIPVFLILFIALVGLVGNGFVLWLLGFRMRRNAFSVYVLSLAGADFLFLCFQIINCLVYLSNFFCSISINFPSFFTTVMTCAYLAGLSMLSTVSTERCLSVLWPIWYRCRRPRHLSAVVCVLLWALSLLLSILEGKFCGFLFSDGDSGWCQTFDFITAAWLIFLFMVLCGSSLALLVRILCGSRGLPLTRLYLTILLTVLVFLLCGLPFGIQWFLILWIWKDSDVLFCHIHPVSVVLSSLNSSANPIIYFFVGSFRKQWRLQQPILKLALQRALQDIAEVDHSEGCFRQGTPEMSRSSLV
- measurement_notes: In vitro inhibition (EC50) of intracellular calcium flux, FLIPR Tetra, substance P stimulation
- Assay type: cell-based
- settings: stimulated with MRGX2 ligand substance P, FLIPR Calcium 5, read-out: hMRGX2 Cellular Potency (pEC50) (converted)
Response field label takes yes (1) when EC50 is strictly below 100 nM and no (0) in all other cases.

* COCCNC1=NS(=O)(=O)c2cccc(-c3cccc(F)c3C3CC3)c2N1 | yes (1)
* CCc1ccccc1-c1cccc2c1NC(NCCOC)=NS2(=O)=O | no (0)
* O=S1(=O)N=C(NCCOCC(F)F)Nc2c(-c3cccc(F)c3Cl)cccc21 | yes (1)
* COc1cccc(CNC2=NS(=O)(=O)c3cccc(C4CC4)c3N2)n1 | no (0)
* CCNC1=NS(=O)(=O)c2cccc(-c3ccnc(F)c3Cl)c2N1 | no (0)
* COCCNC1=NS(=O)(=O)c2cccc(-c3cc(F)cc(F)c3F)c2N1 | no (0)
* COCCNC1=NS(=O)(=O)c2cccc(-c3cccc(F)c3F)c2N1 | no (0)
* O=S1(=O)N=C(NCCF)Nc2c(-c3cccc(F)c3Cl)cc(F)cc21 | no (0)
* CC(C)c1ccc(NC2=NS(=O)(=O)c3cccc(-c4cnn(C(F)F)c4)c3N2)cc1 | no (0)

* * *

- assayed_target: UniProt:Q96LB1
- measurement_notes: In vitro radioligand binding assay (Kd)
- settings: membrane from SF9 cells overexpressing human MRGX2; 3H-labeled ligand; pH 7.4, room temperature, 60 minutes
# reported hMRGX2 Binding Affinity (pKd); entries follow
measured_quantity: hMRGX2 Binding Affinity (pKd)

* COCCNC1=NS(=O)(=O)c2cc(F)cc(-c3cccc(F)c3Cl)c2N1 | 6.975
* Cc1ccccc1-c1cccc2c1NC(NCc1ccccn1)=NS2(=O)=O | 6.51
* O=S1(=O)N=C(NCC(F)F)Nc2c(-c3cccc(F)c3Cl)cccc21 | 7.025
* COCc1cccc2c1NC(Nc1ccc(C(C)C)cc1)=NS2(=O)=O | 5.95
* Cc1nn(C)cc1-c1cccc2c1NC(Nc1ccc(C(C)C)cc1)=NS2(=O)=O | 6.755
* Cc1ccccc1-c1cccc2c1NC(NCc1ccco1)=NS2(=O)=O | 6.54
* CNC1=NS(=O)(=O)c2cccc(-c3cccc(F)c3Cl)c2N1 | 6.724
* O=S1(=O)N=C(NCc2ncco2)Nc2c(-c3cccc(F)c3Cl)cccc21 | 7.03
* CCNC1=NS(=O)(=O)c2cccc(-c3cccc(F)c3Cl)c2N1 | 7.055
* CCNC1=NS(=O)(=O)c2cc(F)cc(-c3cccc(F)c3Cl)c2N1 | 6.78
* COCCNC1=NS(=O)(=O)c2cccc(-c3ccccc3Cl)c2N1 | 4.7
* Cc1c(-c2cccc3c2NC(Nc2ccc(C(C)C)cc2)=NS3(=O)=O)cnn1C | 6.095
* O=S1(=O)N=C(NCc2ncccn2)Nc2c(-c3cccc(F)c3Cl)cccc21 | 7.22
* CNC1=NS(=O)(=O)c2cccc(-c3cccc(F)c3C#N)c2N1 | 6.35
* CC(C)c1ccc(NC2=NS(=O)(=O)c3cccc(C4CC4)c3N2)cc1 | 6.575
* O=S1(=O)N=C(NCc2nccs2)Nc2c(-c3cccc(F)c3Cl)cccc21 | 7.055
* CC(C)c1ccc(NC2=NS(=O)(=O)c3cccc(-c4cnn(C5CCC5)c4)c3N2)cc1 | 6.06
* COCCNC1=NS(=O)(=O)c2cccc(-c3cccc(F)c3Cl)c2N1 | 6.984
